Biological target: Tyrosine-protein kinase Lyn (Homo sapiens)
Test: Inhibition of LYN at 1 uM
QUANTITY: inhibition

• FC(F)(F)c1ccc(Cl)cc1CN1CCNc2ncc(-c3ccnc(N4CCNCC4)c3)cc21 = < 50%
• CN1CCN(c2ccc(-c3cnc4c(c3)N(Cc3c(F)ccc(F)c3Cl)CCN4)cn2)CC1 = < 50%
• O=C(c1ccc(-c2cnc3c(c2)N(Cc2cc(Cl)ccc2C(F)(F)F)CCN3)cc1)N1CCC(N2CCCC2)CC1 = < 50%
• CC(=O)N1CCN(c2cc(-c3cnc4c(c3)N(Cc3cc(Cl)ccc3C(F)(F)F)CCN4)ccn2)CC1 = < 50%
• CN1CCN(c2ccc(-c3cnc4c(c3)N(Cc3cc(Cl)ccc3C(F)(F)F)CCN4)cn2)CC1 = < 50%

###

Biological target: Rhodopsin kinase GRK7 (Homo sapiens) (UniProt Q8WTQ7)
Sequence (Q8WTQ7 whole entry): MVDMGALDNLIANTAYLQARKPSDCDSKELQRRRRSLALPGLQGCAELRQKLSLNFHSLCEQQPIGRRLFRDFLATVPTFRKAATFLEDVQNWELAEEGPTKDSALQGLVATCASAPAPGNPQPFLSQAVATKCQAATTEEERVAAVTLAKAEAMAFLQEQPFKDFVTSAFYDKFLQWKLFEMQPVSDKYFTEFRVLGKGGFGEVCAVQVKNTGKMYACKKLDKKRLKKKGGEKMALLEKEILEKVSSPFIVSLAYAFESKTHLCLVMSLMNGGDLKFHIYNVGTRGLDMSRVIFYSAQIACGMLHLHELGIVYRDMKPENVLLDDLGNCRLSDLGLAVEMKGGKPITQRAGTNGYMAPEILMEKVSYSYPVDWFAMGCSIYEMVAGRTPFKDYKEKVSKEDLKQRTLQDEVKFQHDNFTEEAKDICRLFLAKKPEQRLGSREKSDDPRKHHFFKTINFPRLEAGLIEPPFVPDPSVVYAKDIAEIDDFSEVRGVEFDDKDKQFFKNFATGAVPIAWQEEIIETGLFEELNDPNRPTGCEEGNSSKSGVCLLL
Assay: Inhibition of GRK7 at 1 uM
QUANTITY: inhibition

- FC(F)(F)c1ccc(Cl)cc1CN1CCNc2ncc(-c3ccnc(N4CCNCC4)c3)cc21: 67%
- CN1CCN(c2ccc(-c3cnc4c(c3)N(Cc3cc(Cl)ccc3C(F)(F)F)CCN4)cn2)CC1: < 50%
- CN1CCN(c2ccc(-c3cnc4c(c3)N(Cc3c(F)ccc(F)c3Cl)CCN4)cn2)CC1: < 50%
- CC(=O)N1CCN(c2cc(-c3cnc4c(c3)N(Cc3cc(Cl)ccc3C(F)(F)F)CCN4)ccn2)CC1: < 50%
- CN1CCN(c2ccc(-c3cnc4c(c3)N(Cc3cc(F)ccc3F)CCN4)cn2)CC1: < 50%
- CN1CCN(c2ccc(-c3cnc4c(c3)N(Cc3cc(Cl)ccc3Cl)CCN4)cn2)CC1: < 50%

###

Entries and their measured inhibition follow.
Biological target: Serine/threonine-protein kinase D1 (Homo sapiens)
Sequence (whole entry): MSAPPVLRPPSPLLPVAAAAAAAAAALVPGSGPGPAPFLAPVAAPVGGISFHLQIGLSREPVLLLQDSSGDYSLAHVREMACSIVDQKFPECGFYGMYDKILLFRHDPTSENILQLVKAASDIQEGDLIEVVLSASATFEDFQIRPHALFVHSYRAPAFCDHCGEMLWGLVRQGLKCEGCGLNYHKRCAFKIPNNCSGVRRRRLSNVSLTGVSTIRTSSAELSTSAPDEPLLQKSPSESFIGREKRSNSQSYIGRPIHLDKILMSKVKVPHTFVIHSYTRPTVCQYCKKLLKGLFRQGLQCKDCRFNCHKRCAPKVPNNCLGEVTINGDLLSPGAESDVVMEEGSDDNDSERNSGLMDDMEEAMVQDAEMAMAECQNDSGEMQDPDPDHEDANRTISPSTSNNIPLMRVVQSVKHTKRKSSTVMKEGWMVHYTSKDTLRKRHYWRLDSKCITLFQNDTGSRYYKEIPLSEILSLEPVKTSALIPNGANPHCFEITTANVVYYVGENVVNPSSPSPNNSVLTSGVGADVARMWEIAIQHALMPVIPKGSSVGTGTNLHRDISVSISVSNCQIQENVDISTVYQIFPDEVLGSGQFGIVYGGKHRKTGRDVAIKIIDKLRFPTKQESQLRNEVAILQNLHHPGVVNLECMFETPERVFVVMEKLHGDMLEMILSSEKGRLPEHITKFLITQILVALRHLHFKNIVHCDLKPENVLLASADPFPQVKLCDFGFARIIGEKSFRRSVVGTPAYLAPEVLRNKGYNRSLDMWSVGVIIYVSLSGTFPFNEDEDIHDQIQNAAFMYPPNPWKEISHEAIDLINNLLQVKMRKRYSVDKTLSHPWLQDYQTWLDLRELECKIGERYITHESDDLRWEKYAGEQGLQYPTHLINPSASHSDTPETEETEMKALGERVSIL
Assay: Inhibition of PRKD1 at 1 uM
QUANTITY: inhibition

• CN1CCN(c2ccc(-c3cnc4c(c3)N(Cc3cc(Cl)ccc3Cl)CCN4)cn2)CC1 = < 50%
• FC(F)(F)c1ccc(Cl)cc1CN1CCNc2ncc(-c3ccnc(N4CCNCC4)c3)cc21 = < 50%
• CN1CCN(c2ccc(-c3cnc4c(c3)N(Cc3cc(F)ccc3F)CCN4)cn2)CC1 = 67%
• CN1CCN(c2ccc(-c3cnc4c(c3)N(Cc3cc(Cl)ccc3C(F)(F)F)CCN4)cn2)CC1 = < 50%
• CN1CCN(c2ccc(-c3cnc4c(c3)N(Cc3c(F)ccc(F)c3Cl)CCN4)cn2)CC1 = 67%
• CC(=O)N1CCN(c2cc(-c3cnc4c(c3)N(Cc3cc(Cl)ccc3C(F)(F)F)CCN4)ccn2)CC1 = < 50%
